B1: Max-interacting protein 1, residues 70 to 120; numbered along this chain, P50539 (parent)
chain: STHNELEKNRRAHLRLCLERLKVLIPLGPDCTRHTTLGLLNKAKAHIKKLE

Variants of: B1
Assay Details: abundance fitness (aPCA) (normalised: wild type 0, dead -1); higher = more abundant; growth selection in yeast, the domain comes from the species named
Conditions: Homo sapiens
Recorded measurements of abundance fitness, one per entry
Give the figure by itself; no unit, no explanation.

See these solved cases before continuing.
N41I; -0.631
E19T; -0.532
I25G; -0.26

Query: If you can, please state the reported abundance fitness value of K22C .
Reply: -0.871

Query: Query G38S next
Reply: -0.087

Query: Likewise for L24V ?
Reply: -0.193

Query: Entry E19C please
Reply: -0.618

Query: Try this variant next: K22Q
Reply: -1.02

Query: And the next one, R33M ?
Reply: -0.394

Query: Would you kindly repeat that for E51T ?
Reply: 0.462

Query: Now give it for H46P too.
Reply: -0.6

Query: Request: H34D
Reply: -0.457

Query: Would you kindly repeat that for L16M ?
Reply: -0.001

Query: Would you kindly repeat that for T2P ?
Reply: -0.35

Query: Field entry: S1C
Reply: -0.216
